meta.source: paper PMC9399681

Target: T1, mASH1L PHD domain (residue 2573–2624) D2584E (mouse, UniProt Q99MY8 2573-2624, D2584E)
T1 construct: also called Asp2584 to Glu; source: E. coli BL21 (DE3), purified (MBPTrap, TEV cleavage, Superdex 75)
T1 sequence (looked up): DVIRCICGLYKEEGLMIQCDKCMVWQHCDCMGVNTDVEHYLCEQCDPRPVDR
Experiment: ITC; PHD mutants in the cell; H3 (1–15) peptides at 1.5 mM, 19 injections of 2 μl; 25°C, 1×PBS pH 7.2, 100 μM ZnCl2; one set of sites model
Details: both partners purified
pKd: −log10 of the molar value. Primed or numbered codes have the meaning given here. Where no end group is shown, it is not given here. [ ]: non-standard residue; d: D form. Me3″ = trimethylation (trimethyl-lysine); Lys(Me2) = CN(C)CCCC[C@H](N)C(=O)O
Quantity kind: pKd

Example entries begin here.
| Binder | Quantity kind | Value observed |
| --- | --- | --- |
| ARTK(Me)QTARKSTGGKA (peptide, UniProt P68431 2-16, looked up, histone H3, residues 1-15; also called H3K4me1; H3K4me; source: synthetic peptide (MIMOYOPES, Wuxi, China)) [histone H3 (1–15) peptide, monomethylated on lysine 4] | pKd | ~4.27 |
| ARTK(Me3″)QTARKSTGGKA (peptide, UniProt P68431 2-16, looked up, histone H3, residues 1-15; also called H3K4me3; source: synthetic peptide (MIMOYOPES, Wuxi, China)) [histone H3 (1–15) peptide, trimethylated on lysine 4] | pKd | ~4.42 |

Quick note, pKd for ART[Lys(Me2)]QTARKSTGGKA (also called H3K4me2; H3K4me2 peptide (1–15); source: synthetic peptide (MIMOYOPES, Wuxi, China)) [histone H3 (1–15) peptide, dimethylated on lysine 4] landed at ~4.59
